molecular target: Ba/F3-EGFR-L858R cells (Homo sapiens, UniProt P00533, L858R, cells depend on it); assay: Ba/F3 cell survival assay, EGFR L858R; format: cell-based; conditions: without IL-3, without EGF, 48 h; read-out: BA/F3 (EGFR L858R) IC50
Sequence (P00533 whole entry L858R): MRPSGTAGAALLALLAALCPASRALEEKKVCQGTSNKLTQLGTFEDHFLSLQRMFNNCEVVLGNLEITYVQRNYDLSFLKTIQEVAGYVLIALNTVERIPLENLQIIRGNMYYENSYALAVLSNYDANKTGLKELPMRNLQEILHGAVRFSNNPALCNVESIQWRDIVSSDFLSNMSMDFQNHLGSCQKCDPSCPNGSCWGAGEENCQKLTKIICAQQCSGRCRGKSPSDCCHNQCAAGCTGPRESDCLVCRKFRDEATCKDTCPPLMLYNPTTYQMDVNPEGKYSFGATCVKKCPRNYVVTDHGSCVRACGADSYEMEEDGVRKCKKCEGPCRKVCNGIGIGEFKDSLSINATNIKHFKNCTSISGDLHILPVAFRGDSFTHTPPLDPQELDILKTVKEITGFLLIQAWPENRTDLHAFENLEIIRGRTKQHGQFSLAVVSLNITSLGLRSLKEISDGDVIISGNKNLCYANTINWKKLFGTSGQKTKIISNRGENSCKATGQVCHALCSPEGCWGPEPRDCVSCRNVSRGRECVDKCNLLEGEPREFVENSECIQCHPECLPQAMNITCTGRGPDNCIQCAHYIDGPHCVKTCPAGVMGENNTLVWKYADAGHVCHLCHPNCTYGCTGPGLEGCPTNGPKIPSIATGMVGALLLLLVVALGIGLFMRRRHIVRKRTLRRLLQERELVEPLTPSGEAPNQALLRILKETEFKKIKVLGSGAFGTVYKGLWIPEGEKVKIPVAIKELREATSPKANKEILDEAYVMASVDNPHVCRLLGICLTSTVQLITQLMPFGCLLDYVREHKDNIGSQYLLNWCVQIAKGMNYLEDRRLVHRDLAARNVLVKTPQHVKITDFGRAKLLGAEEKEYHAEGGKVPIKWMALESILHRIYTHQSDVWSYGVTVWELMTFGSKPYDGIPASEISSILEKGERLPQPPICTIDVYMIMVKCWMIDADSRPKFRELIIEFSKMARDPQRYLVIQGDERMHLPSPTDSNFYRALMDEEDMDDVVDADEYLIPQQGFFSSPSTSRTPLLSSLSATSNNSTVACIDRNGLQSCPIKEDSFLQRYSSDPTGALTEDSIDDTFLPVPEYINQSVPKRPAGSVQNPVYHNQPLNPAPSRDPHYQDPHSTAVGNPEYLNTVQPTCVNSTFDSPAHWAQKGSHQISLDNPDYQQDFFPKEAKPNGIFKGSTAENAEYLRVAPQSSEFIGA
Result Type: GI50 (nM)
Reply numerically in nM, unit not repeated.

Please state recorded GI50 (tested on Ba/F3-EGFR-L858R cells (Homo sapiens, UniProt P00533, L858R, cells depend on it)) of Cc1c(Cl)cccc1Nc1c(-c2ccncc2OC[C@H]2COCCO2)[nH]c2c1C(=O)NCC2 (single isomer, unassigned) [Example 50]
1.07

Test system Ba/F3-EGFR-L858R cells (Homo sapiens, UniProt P00533, L858R, cells depend on it); read-out GI50; what value for COc1c(Cl)cccc1Nc1c(-c2ccncc2OC[C@@H]2COCCO2)[nH]c2c1C(=O)NCC2 (single isomer, unassigned) [Example 2] ?
0.525

Return GI50 measured with Ba/F3-EGFR-L858R cells (Homo sapiens, UniProt P00533, L858R, cells depend on it) given this compound: O=C1NCCc2[nH]c(-c3ccncc3OCC3COCCO3)c(Nc3cccc(Cl)c3Cl)c21 (single isomer, unassigned) [Example 8]
0.701

Request: GI50, test system Ba/F3-EGFR-L858R cells (Homo sapiens, UniProt P00533, L858R, cells depend on it), entry CCc1c(Cl)cccc1Nc1c(-c2ccncc2OC[C@@H]2CN(C)CCO2)[nH]c2c1C(=O)NCC2 [Example 56]
1.34

Test system Ba/F3-EGFR-L858R cells (Homo sapiens, UniProt P00533, L858R, cells depend on it); read-out GI50; what value for COc1c(F)cccc1Nc1c(-c2ccncc2OCC2CN(C)CCO2)[nH]c2c1C(=O)NCC2 (single isomer, unassigned) [Example 14] ?
1.22

Missing value: GI50, Ba/F3-EGFR-L858R cells (Homo sapiens, UniProt P00533, L858R, cells depend on it), entry COc1c(F)cccc1Nc1c(-c2ccncc2OCC2COCCO2)[nH]c2c1C(=O)NCC2 (single isomer, unassigned) [Example 5] . Fill in?
2.03

Give GI50 (Ba/F3-EGFR-L858R cells (Homo sapiens, UniProt P00533, L858R, cells depend on it)) of the following compound: CCc1c(Cl)cccc1Nc1c(-c2ccncc2OCC2CN(C)CCO2)[nH]c2c1C(=O)NCC2 (centres unmarked) [Example 29]
0.964

Please provide the recorded GI50 for Cc1c(Cl)cccc1Nc1c(-c2ccncc2OCC2COC(C)(C)CO2)[nH]c2c1C(=O)NCC2 (single isomer, unassigned) [Example 46] , tested on Ba/F3-EGFR-L858R cells (Homo sapiens, UniProt P00533, L858R, cells depend on it).
0.957

====

Give measured GI50 for each item. Keep answers brief.
target: Ba/F3-EGFR-WT cells (Homo sapiens, UniProt P00533); experiment: Ba/F3 cell survival assay (Cell Titer-Glo), WT EGFR; assay type: cell-based; conditions: without IL-3, with 10 ng/mL EGF, 48 h; read-out: BA/F3 (wild type) IC50
# number only, unit µM dropped from output

Quick check: GI50 of Cc1c(Cl)cccc1Nc1c(-c2ccncc2OCC2COC(C)(C)CO2)[nH]c2c1C(=O)NCC2 (single isomer, unassigned) [Example 46] ?
0.376

Look up GI50: COc1c(Cl)cccc1Nc1c(-c2ccncc2OCCC2COCCO2)[nH]c2c1C(=O)NCC2 (single isomer, unassigned) [Example 26]
0.839

Look up GI50: `COc1c(Cl)cccc1Nc1c(-c2ccncc2OC[C@@H]2COCCN2C)[nH]c2c1C(=O)NCC2`
0.341

Sample CCc1c(Cl)cccc1Nc1c(-c2ccncc2OC[C@H]2COCCO2)[nH]c2c1C(=O)NCC2 (single isomer, unassigned) — what was its GI50?
0.917

What value of GI50 has been recorded for this entry: Cc1c(F)cccc1Nc1c(-c2ccncc2OCC2COCCO2)[nH]c2c1C(=O)NCC2 (single isomer, unassigned) [Example 49]
0.785

Fill in: GI50 of CCc1c(Cl)cccc1Nc1c(-c2ccncc2OC[C@@H]2COCCO2)[nH]c2c1C(=O)NCC2 (single isomer, unassigned) is ___
0.408

====

For each of the molecules below, state its GI50.
target: Ba/F3-EGFR-V769_D770insASV cells (Homo sapiens, UniProt P00533, DUP767-769, cells depend on it); experiment: Ba/F3 cell survival assay, EGFR V769_D770insASV; type: cell-based; conditions: without IL-3, without EGF, 48 h; read-out: BA/F3 (ASV) IC50
Sequence (P00533 with tags, fused parts or gaps DUP767-769): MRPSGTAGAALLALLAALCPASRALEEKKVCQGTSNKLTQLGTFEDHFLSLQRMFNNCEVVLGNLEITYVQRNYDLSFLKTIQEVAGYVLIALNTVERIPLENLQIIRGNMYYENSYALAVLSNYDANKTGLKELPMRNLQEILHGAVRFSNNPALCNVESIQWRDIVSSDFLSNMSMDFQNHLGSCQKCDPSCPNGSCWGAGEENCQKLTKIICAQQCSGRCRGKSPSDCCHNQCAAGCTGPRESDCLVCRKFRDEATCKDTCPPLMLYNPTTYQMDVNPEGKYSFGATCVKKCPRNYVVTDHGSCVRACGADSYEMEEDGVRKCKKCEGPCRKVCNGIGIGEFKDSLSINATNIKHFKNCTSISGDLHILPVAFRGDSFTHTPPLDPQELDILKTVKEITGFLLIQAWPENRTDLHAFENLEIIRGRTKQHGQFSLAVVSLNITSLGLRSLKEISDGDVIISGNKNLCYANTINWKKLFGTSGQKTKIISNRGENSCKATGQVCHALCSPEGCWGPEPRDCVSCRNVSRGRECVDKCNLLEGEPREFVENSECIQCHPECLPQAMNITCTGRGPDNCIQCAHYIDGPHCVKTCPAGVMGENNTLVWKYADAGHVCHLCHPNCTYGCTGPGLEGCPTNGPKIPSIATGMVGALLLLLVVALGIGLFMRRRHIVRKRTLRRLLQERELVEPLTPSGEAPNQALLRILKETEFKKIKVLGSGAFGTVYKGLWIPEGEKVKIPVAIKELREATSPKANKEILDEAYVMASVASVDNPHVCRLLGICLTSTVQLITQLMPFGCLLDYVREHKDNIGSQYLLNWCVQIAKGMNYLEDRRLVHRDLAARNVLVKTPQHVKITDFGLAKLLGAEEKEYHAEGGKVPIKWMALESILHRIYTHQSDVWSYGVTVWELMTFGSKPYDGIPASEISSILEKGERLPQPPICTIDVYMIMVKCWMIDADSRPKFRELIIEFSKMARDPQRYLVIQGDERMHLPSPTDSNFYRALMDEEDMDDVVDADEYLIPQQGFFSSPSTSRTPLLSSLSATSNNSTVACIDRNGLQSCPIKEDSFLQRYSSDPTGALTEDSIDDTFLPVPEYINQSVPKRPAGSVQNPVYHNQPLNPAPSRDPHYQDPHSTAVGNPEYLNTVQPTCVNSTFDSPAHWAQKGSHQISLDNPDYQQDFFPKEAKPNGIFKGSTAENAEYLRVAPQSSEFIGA
Just the number in nM, nothing appended.

# get_value(readout='GI50', item= COc1c(Cl)cccc1Nc1c(-c2ccncc2OCC2COC(C)(C)CO2)[nH]c2c1C(=O)NCC2 (single isomer, unassigned) )
13.2

Given Cc1c(F)cccc1Nc1c(-c2ccncc2OCC2COCCO2)[nH]c2c1C(=O)NCC2 (single isomer, unassigned) , state its recorded GI50.
41.8

Quick check: GI50 of COc1c(Cl)cccc1Nc1c(-c2ccncc2OC[C@@H]2COCCO2)[nH]c2c1C(=O)NCC2 (single isomer, unassigned) ?
4.66

Field request: GI50 | item: `CCc1c(Cl)cccc1Nc1c(-c2ccncc2OC[C@@H]2CN(C)CCO2)[nH]c2c1C(=O)NCC2`
14.1

Please report the recorded GI50 for `Cc1c(Cl)cccc1Nc1c(-c2ccncc2OC[C@@H]2CN(C)CCO2)[nH]c2c1C(=O)NCC2` .
14.1

So what does the record say about GI50 for COc1c(F)cccc1Nc1c(-c2ccncc2OCC2COCCO2)[nH]c2c1C(=O)NCC2 (single isomer, unassigned) ?
28.7

For the molecule Cc1c(Cl)cccc1Nc1c(-c2ccncc2OC[C@H]2COCCO2)[nH]c2c1C(=O)NCC2 (single isomer, unassigned) , what GI50 is on record?
10.4

Request the reported GI50 associated with Cc1c(Cl)cccc1Nc1c(-c2ccncc2OCC2COC(C)(C)CO2)[nH]c2c1C(=O)NCC2 (single isomer, unassigned)
11.7

Would you kindly share the measured GI50 for `COc1c(F)cccc1Nc1c(-c2ccncc2OC[C@@H]2COCCN2C)[nH]c2c1C(=O)NCC2` ?
11.7

GI50 for COc1c(F)cccc1Nc1c(-c2ccncc2OCC2CN(C)CCO2)[nH]c2c1C(=O)NCC2 (single isomer, unassigned) ?
16.4

So what's the measured GI50 for this one? `COc1c(Cl)cccc1Nc1c(-c2ccncc2OC[C@@H]2COCCN2C)[nH]c2c1C(=O)NCC2`
7.78

Could you share which GI50 value was measured for O=C1NCCc2[nH]c(-c3ccncc3OCC3COCCO3)c(Nc3cccc(Cl)c3Cl)c21 (single isomer, unassigned) ?
9.62

====

biological target: Ba/F3-EGFR-insSVD cells (Homo sapiens, UniProt P00533, DUP768-770, cells depend on it); experiment: Ba/F3 cell survival assay (Cell Titer-Glo), EGFR-insSVD; format: cell-based; settings: without IL-3, with 10 ng/mL EGF, 48 h; read-out: BA/F3 (insSVD) IC50
Sequence (P00533 with tags, fused parts or gaps DUP768-770): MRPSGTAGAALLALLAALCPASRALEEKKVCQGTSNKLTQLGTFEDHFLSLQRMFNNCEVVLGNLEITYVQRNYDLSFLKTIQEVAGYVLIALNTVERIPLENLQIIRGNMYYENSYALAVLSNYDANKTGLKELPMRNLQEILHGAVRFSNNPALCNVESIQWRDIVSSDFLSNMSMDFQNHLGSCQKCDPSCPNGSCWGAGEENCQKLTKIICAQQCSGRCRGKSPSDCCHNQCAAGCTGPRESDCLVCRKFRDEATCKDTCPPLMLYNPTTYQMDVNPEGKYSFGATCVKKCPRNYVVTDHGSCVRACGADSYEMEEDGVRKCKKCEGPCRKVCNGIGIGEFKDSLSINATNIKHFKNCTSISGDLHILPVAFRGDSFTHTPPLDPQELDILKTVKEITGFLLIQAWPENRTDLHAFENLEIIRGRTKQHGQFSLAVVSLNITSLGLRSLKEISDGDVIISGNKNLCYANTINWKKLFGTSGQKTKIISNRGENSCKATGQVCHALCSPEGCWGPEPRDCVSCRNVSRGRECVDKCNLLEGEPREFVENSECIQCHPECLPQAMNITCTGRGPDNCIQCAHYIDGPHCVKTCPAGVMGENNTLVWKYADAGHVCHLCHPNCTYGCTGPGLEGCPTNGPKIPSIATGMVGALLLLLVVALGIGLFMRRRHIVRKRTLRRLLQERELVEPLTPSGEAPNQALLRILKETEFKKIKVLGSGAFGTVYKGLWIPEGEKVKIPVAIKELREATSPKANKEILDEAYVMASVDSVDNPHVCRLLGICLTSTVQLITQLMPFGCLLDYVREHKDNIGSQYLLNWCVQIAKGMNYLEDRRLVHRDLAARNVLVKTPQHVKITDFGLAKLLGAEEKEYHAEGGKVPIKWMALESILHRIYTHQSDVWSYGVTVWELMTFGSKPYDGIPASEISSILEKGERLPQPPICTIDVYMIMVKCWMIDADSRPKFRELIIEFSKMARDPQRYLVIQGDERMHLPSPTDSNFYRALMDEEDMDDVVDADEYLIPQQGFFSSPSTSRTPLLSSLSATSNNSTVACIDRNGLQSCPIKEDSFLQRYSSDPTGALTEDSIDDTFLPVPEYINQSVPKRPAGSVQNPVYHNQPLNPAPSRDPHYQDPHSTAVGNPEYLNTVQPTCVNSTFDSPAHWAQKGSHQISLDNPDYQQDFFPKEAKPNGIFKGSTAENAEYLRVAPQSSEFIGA
For each entry below, report its GI50 value.
Respond numerically; units are nM and should not be typed.

Look at this compound and give its reported GI50. COc1c(Cl)cc(F)cc1Nc1c(-c2ccncc2OC[C@@H]2CN(CC(F)(F)F)CCO2)[nH]c2c1C(=O)NCC2 [Example 28]
126

Entry COc1c(F)cccc1Nc1c(-c2ccncc2OC[C@@H]2COCCN2C)[nH]c2c1C(=O)NCC2 [Example 20] : reported GI50 = ?
8.25

Requested field: GI50. Item: Cc1c(Cl)cccc1Nc1c(-c2ccncc2OCC2COC(C)(C)CO2)[nH]c2c1C(=O)NCC2 (single isomer, unassigned) [Example 46]
10.1

Please report the recorded GI50 for COc1c(Cl)cccc1Nc1c(-c2ccncc2OCC2COC(C)(C)CO2)[nH]c2c1C(=O)NCC2 (stereo not shown) [Example 30] .
19.3

Name the reported GI50 value associated with the compound CCc1c(F)cccc1Nc1c(-c2ccncc2OCC2COCCO2)[nH]c2c1C(=O)NCC2 (single isomer, unassigned) [Example 67]
29

If you can, please state the reported GI50 value of COc1c(Cl)cccc1Nc1c(-c2ccncc2OCC2CN(C)CCO2)[nH]c2c1C(=O)NCC2 (stereo not shown) [Example 15] .
15.3

Name the recorded GI50 for COc1c(Cl)cccc1Nc1c(-c2ccncc2OC(C)C2CN(C)CCO2)[nH]c2c1C(=O)NCC2 (single isomer, unassigned) [Example 75] .
571

====

target: Ba/F3-EGFR-E746_A750del C797S cells (Homo sapiens, UniProt P00533, DEL746-750/C797S, cells depend on it); experiment: Ba/F3 cell survival assay, EGFR E746_A750del C797S; format: cell-based; conditions: without IL-3, without EGF, 48 h; read-out: BA/F3 (EGFR E746_A750del C797S) IC50
Sequence (P00533 with tags, fused parts or gaps DEL746-750/C797S): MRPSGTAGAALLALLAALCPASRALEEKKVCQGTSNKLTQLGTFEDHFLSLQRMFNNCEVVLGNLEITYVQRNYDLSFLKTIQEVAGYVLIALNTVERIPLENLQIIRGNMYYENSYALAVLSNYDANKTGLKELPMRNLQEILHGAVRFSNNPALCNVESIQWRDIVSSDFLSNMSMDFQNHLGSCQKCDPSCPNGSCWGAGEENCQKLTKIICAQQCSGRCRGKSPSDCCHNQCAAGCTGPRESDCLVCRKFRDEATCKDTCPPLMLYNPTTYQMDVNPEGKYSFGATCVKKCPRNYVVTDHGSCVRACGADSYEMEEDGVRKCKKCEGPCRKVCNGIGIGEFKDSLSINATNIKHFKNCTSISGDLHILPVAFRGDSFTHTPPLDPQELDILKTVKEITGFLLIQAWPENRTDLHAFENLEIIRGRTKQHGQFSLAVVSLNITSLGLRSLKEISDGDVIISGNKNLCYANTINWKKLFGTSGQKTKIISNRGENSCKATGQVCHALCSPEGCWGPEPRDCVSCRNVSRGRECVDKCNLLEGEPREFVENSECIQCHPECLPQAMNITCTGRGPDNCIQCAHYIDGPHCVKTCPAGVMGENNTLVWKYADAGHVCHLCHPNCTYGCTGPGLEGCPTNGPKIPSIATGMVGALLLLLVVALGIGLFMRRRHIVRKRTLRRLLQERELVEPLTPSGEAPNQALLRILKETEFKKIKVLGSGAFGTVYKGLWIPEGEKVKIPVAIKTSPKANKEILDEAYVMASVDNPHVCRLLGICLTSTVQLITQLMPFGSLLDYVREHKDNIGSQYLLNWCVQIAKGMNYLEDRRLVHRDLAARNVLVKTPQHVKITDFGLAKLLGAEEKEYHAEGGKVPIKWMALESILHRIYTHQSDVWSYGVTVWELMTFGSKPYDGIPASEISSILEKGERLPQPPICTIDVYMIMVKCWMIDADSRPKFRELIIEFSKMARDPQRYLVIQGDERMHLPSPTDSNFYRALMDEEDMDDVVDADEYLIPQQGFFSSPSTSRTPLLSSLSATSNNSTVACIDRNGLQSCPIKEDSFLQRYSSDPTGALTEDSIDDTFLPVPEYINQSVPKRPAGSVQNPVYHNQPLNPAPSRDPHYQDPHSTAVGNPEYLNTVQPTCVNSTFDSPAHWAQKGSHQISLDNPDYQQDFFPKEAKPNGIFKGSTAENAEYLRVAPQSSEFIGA
Result Type: GI50
Quote the value and follow it with the unit of measurement.

For the molecule shown here, Cc1c(Cl)cccc1Nc1c(-c2ccncc2OC[C@H]2COCCO2)[nH]c2c1C(=O)NCC2 (single isomer, unassigned) [Example 50] , give the reported GI50.
0.348 nM

What GI50 value was documented for this molecule, COc1c(Cl)cccc1Nc1c(-c2ccncc2OC[C@@H]2COCCN2C)[nH]c2c1C(=O)NCC2 [Example 21] ?
0.259 nM

Entry under review: COc1c(Cl)cccc1Nc1c(-c2ccncc2OCC2COC(C)(C)CO2)[nH]c2c1C(=O)NCC2 (single isomer, unassigned) [Example 32] . Reported GI50?
0.511 nM

So what does the record say about GI50 for COc1c(Cl)cccc1Nc1c(-c2ccncc2OC[C@@H]2COCCO2)[nH]c2c1C(=O)NCC2 (single isomer, unassigned) [Example 2] ?
0.22 nM

So what does the record say about GI50 for Cc1c(Cl)cccc1Nc1c(-c2ccncc2OC[C@@H]2CN(C)CCO2)[nH]c2c1C(=O)NCC2 [Example 42] ?
0.494 nM

Query (molecule): COc1c(F)cccc1Nc1c(-c2ccncc2OCC2CN(C)CCO2)[nH]c2c1C(=O)NCC2 (single isomer, unassigned) [Example 14] ; field requested: GI50
0.379 nM

For COc1c(F)cccc1Nc1c(-c2ccncc2OCC2COCCO2)[nH]c2c1C(=O)NCC2 (single isomer, unassigned) [Example 5] , what is its reported GI50?
0.668 nM

I'd like to know its GI50. The molecule in question is O=C1NCCc2[nH]c(-c3ccncc3OCC3COCCO3)c(Nc3cccc(Cl)c3Cl)c21 (single isomer, unassigned) [Example 8]
0.247 nM

Entry under review: COc1c(F)cccc1Nc1c(-c2ccncc2OC[C@@H]2COCCN2C)[nH]c2c1C(=O)NCC2 [Example 20] . Reported GI50?
0.349 nM

Given the entry CCc1c(Cl)cccc1Nc1c(-c2ccncc2OC[C@@H]2CN(C)CCO2)[nH]c2c1C(=O)NCC2 [Example 56] , report its measured GI50.
0.423 nM
